// data source = the PolyMetriX glass transition set

Where a name gives a salt, the structure may show the parent alone.
Experimental readout: glass transition temperature (°C)

Look over these answered cases.
>  <Compound>
*CC(COCOCC(C)([N+](=O)[O-])[N+](=O)[O-])O* (repeat unit)

>  <Unit annotation>
°C

>  <glass transition temperature>
-15.00

$$$$
>  <Compound>
*c1ccc(Oc2ccc(C(C)(C)c3ccc(Oc4ccc(N5C(=O)C6CCC7C(=O)N(*)C(=O)C7C6C5=O)cc4)cc3)cc2)cc1 (repeat unit)

>  <Unit annotation>
°C

>  <glass transition temperature>
263.50

$$$$
>  <Compound>
*c1ccc(N2C(=O)CC(C3C=C(C)C4C(=O)N(*)C(=O)C4C3)C2=O)cc1 (repeat unit)

>  <Unit annotation>
°C

>  <glass transition temperature>
327.00

$$$$
>  <Compound>
*/C=C(\C#N)C(=O)OCCCCCCCCCCOC(=O)/C(C#N)=C/c1ccc2c(c1)c1cc(*)ccc1n2CCCCCCCCCCCCCC (repeat unit)

>  <Unit annotation>
°C

>  <glass transition temperature>
35.00

$$$$
>  <Compound>
*CC(*)OC=O (repeat unit) [Poly(vinyl formate)]

>  <Unit annotation>
°C

>  <glass transition temperature>
32.4

$$$$
>  <Compound>
*O[Si](*)(C)CCCCCCCCCCC(=O)Oc1ccc(-c2ccc(OC(=O)c3ccc(OCCCCCCC)cc3)cc2)cc1 (repeat unit)

>  <Unit annotation>
°C

>  <glass transition temperature>
61.10

$$$$

(a) *OC(=O)C(CC(C)C)NC(=O)CCCCCCCCC(=O)NC(CC(C)C)C(=O)OC1COC2C(*)COC12 (repeat unit)
(b) *CCCCNC(=O)c1ccc(C(C)(CC)c2ccc(C(=O)N*)cc2)cc1 (repeat unit)
(c) *CC(*)c1ccc(CCCCCCCCC)cc1 (repeat unit)
Task: Would you mind ranking these compounds by ascending glass transition temperature? List the labels in the requested order.
Result: c, a, b

(a) *CC(*)(C)C(=O)OCCCCCCCCCCOc1ccc(/N=N/c2ccccc2)cc1 (repeat unit)
(b) *c1ccc(Oc2ccc(S(=O)(=O)c3ccc(Oc4ccc(N5C(=O)c6ccc(Oc7cccc(Oc8ccc9c(c8)C(=O)N(*)C9=O)c7)cc6C5=O)cc4)cc3)cc2)cc1 (repeat unit)
Task: Compare a and b and name the one whose reported glass transition temperature is smaller. Kindly give the label for the entry you pick.
Result: a
(a: 56.00 °C, b: 201.00 °C)

====

Experimental readout: glass transition temperature (°C)

(1) *OC(=O)C(Cc1ccccc1)NC(=O)CCCCCCC(=O)NC(Cc1ccccc1)C(=O)OC1COC2C(*)COC12 (repeat unit)
(2) *O[Si](*)(CCCOCCOCCOCCOCCOCCOC)CCCOCCOCCOCCOCCOCCOC (repeat unit)
Task: Among 1 and 2 , which shows a numerically higher glass transition temperature result? Kindly give the label for the entry you pick.
Result: 1

====

Experimental readout: glass transition temperature (°C)

(A) *CCCOC(=O)c1cccc(C(=O)O*)c1 (repeat unit)
(B) *CCCCCCCCCCN1C(=O)c2ccc(-c3ccc(-c4ccc5c(c4)C(=O)N(*)C5=O)cc3)cc2C1=O (repeat unit)
Task: Among A and B , which shows a numerically higher glass transition temperature result? Kindly give the label for the entry you pick.
Result: B
(B: 103.00 °C, A: 36.00 °C)

(1) *CC(O)CN(CC(O)COc1ccc(C(C)(C)c2ccc(O*)cc2)cc1)c1ccc(/N=N/c2ccc([N+](=O)[O-])cc2)cc1 (repeat unit)
(2) *c1ccc(/C=C/c2cc(OCC(CC)CCCC)c(/C=C/c3ccc(N(*)c4ccccc4)cc3)cc2OC)cc1 (repeat unit)
Task: Compare 1 and 2 and name the one whose reported glass transition temperature is smaller. Kindly give the label for the entry you pick.
Result: 1
